# SYSTEM_UNDER_TEST: PKK in kaolin activated human platelet poor plasma (Homo sapiens)
# Construct: Platelet poor plasma (PPP) obtained from human wholeblood
# Sequence (P03952 391-638 limits assumed): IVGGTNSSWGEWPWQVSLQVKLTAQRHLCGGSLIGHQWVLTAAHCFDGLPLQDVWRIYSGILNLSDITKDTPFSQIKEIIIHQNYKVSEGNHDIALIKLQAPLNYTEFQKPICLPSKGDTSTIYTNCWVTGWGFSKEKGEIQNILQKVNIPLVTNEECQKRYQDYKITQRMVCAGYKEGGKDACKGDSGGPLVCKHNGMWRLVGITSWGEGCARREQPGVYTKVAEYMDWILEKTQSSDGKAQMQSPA
# Sequence (P03952 20-390 limits assumed): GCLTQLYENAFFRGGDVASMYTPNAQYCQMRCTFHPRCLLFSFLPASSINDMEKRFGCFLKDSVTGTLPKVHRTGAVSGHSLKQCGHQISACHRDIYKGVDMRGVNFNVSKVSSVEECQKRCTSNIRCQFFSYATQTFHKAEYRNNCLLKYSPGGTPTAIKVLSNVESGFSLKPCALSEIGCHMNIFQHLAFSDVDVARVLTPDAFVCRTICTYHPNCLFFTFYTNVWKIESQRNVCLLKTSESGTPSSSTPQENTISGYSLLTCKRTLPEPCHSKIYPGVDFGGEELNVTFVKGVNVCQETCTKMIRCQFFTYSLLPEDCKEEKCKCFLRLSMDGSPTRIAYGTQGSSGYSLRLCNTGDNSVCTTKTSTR
# EXPERIMENT_NOTES: Inhibition of PKK in kaolin activated human PPP;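 further: readout is the rate of fluorogenic substrate cleavage in rfu per min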
# CONDITION_PARAMETERS: 25-750 μg/mL kaolin, global fit, text b200 calls the values IC90
TEST_READOUT: pIC50
Scale: pIC50 equals -log10([C]), with [C] in mol/L.

Worked set:
>  <MOLECULE>
CCc1nc(N2CC3CC3C2)ccc1Cc1cc(C(=O)N[C@@H]2CCc3c2ncn3C)on1 (stereo partly shown) [Example 146]

>  <NUMERIC_VALUE>
6.56

$$$$
>  <MOLECULE>
Cn1cnc2c1CC[C@H]2NC(=O)c1cnn(Cc2ccc(N3CC4CC4C3)nc2Cl)c1 (stereo partly shown) [Example 127]

>  <NUMERIC_VALUE>
5.77

$$$$
>  <MOLECULE>
Cn1cnc2c1CC[C@H]2NC(=O)c1cc(Cc2ccc(N3CC4CC4C3)nc2Cl)no1 (stereo partly shown) [Example 148]

>  <NUMERIC_VALUE>
6.01

$$$$
>  <MOLECULE>
CCn1nc(Cc2ccc(N3CC4C(C3)C4(F)F)nc2C)cc1C(=O)N[C@@H]1CCc2c1ncn2C (stereo partly shown) [Example 163]

>  <NUMERIC_VALUE>
6.33

$$$$
>  <MOLECULE>
CCCc1nc(N2CC3CC3C2)ccc1Cn1cnc(C(=O)N[C@@H]2CCc3c2ncn3C)c1 (stereo partly shown) [Example 110]

>  <NUMERIC_VALUE>
6.11

$$$$

Req: For the molecule Cn1cnc2c1CC[C@H]2NC(=O)c1cnn(Cc2cnc(N3CC4CC4C3)cc2C(F)(F)F)c1 (stereo partly shown) [Example 115] , give its measured pIC50 value.
Resp: 5.58

Req: Name the recorded pIC50 of the item Cn1cnc2c1CC[C@H]2NC(=O)c1cn(Cc2ccc(N3CC4C(C3)C4(F)F)nc2Br)nn1 (stereo partly shown) [Example 14] in your answer.
Resp: 6.20

Req: # return recorded pIC50 for input Cn1cnc2c1CC[C@H]2NC(=O)c1cn(Cc2ccc(N3CC4C(C3)C4(F)F)nc2Br)cn1 (stereo partly shown) [Example 28]
Resp: 6.74

Req: Query pIC50 for Cn1cnc2c1CC[C@H]2NC(=O)c1cnn(Cc2cnc(N3CC4CC4C3)nc2CO)c1 (stereo partly shown) [Example 62]
Resp: 6.11
